Positions of bridges follow the written chain, without caps; N, C: chain ends. Non-standard residues stand in square brackets, D forms with d. Residues, ends and D or L forms follow the SMILES beside them. *: point of attachment. Benzoyl(3-CF3) = O=C(c1cccc(C(F)(F)F)c1)*; Octanoyl = CCCCCCCC(=O)*; Dab = NCC[C@H](N)C(=O)O; Abu = CC[C@H](N)C(=O)O; Dap = NC[C@H](N)C(=O)O
Enterobacter cloacae: reported Minimum inhibitory concentration, Ec FADDI-EC003 for various compounds.
measurement_label: Minimum inhibitory concentration, Ec FADDI-EC003

# compound, measurement
rows = [
    ("CCCCCCCC(=O)N[C@@H](CCN)C(=O)N[C@H](C(=O)N[C@@H](CN)C(=O)N[C@H]1CCNC(=O)[C@H]([C@@H](C)O)NC(=O)[C@H](CCN)NC(=O)[C@H](CCN)NC(=O)[C@H](CC)NC(=O)[C@@H](Cc2ccccc2)NC(=O)[C@H](CCN)NC1=O)[C@@H](C)O [Compound 130] (Octanoyl-[Dab]T[Dap][Dab][Dab][dF][Abu][Dab][Dab]T; lactam 4-C)", "0.25 µg/mL"),
    ("CC[C@@H]1NC(=O)[C@@H](CC(C)C)NC(=O)[C@H](CCN)NC(=O)[C@@H](NC(=O)[C@@H](CO)NC(=O)[C@@H](NC(=O)[C@H](CCN)NC(=O)c2cccc(C(F)(F)F)c2)[C@@H](C)O)CCNC(=O)[C@H]([C@@H](C)O)NC(=O)[C@H](CCN)NC(=O)[C@H](CCN)NC1=O [Compound 18] ({Benzoyl(3-CF3)}-[Dab]T[dS][Dab][Dab][dL][Abu][Dab][Dab]T; lactam 4-C)", "0.5 µg/mL"),
]

----------
Test system: Enterobacter cloacae
Conditions: Enterobacter cloacae FADDI-EC003; broth microdilution in CAMHB; TFA salt
Positions of bridges follow the written chain, without caps; N, C: chain ends. Non-standard residues stand in square brackets, D forms with d. Residues, ends and D or L forms follow the SMILES beside them. *: point of attachment. Benzoyl(4-Ph) = O=C(c1ccc(-c2ccccc2)cc1)*; X3 = O=C(c1ccc(Cl)cc1Cl)*; Orn = NCCC[C@H](N)C(=O)O; Dab = NCC[C@H](N)C(=O)O; Abu = CC[C@H](N)C(=O)O; Dap = NC[C@H](N)C(=O)O
measurement_label: Minimum inhibitory concentration (MIC), Ec FADDI-EC003

# molecule, measurement
measured = [
    ("CC[C@@H]1NC(=O)[C@@H](CC(C)C)NC(=O)[C@H](CCN)NC(=O)[C@@H](NC(=O)[C@H](CCCN)NC(=O)[C@@H](NC(=O)[C@H](CCN)NC(=O)c2ccc(Cl)cc2Cl)[C@@H](C)O)CCNC(=O)[C@H]([C@@H](C)O)NC(=O)[C@H](CCN)NC(=O)[C@H](CCN)NC1=O [Compound 147] (X3-[Dab]T[Orn][Dab][Dab][dL][Abu][Dab][Dab]T; lactam 4-C)", "1 µg/mL"),
    ("CC[C@@H]1NC(=O)[C@@H](CC(C)C)NC(=O)[C@H](CCN)NC(=O)[C@@H](NC(=O)[C@H](CN)NC(=O)[C@@H](NC(=O)[C@H](CCN)NC(=O)c2ccc(-c3ccccc3)cc2)[C@@H](C)O)CCNC(=O)[C@H]([C@@H](C)O)NC(=O)[C@H](CCN)NC(=O)[C@H](CCN)NC1=O [Compound 142] ({Benzoyl(4-Ph)}-[Dab]T[Dap][Dab][Dab][dL][Abu][Dab][Dab]T; lactam 4-C)", "1 µg/mL"),
]

----------
Test system: Enterobacter cloacae
Positions of bridges follow the written chain, without caps; N, C: chain ends. Non-standard residues stand in square brackets, D forms with d. Residues, ends and D or L forms follow the SMILES beside them. *: point of attachment. Decanoyl = CCCCCCCCCC(=O)*; Nonanoyl = CCCCCCCCC(=O)*; Octanoyl = CCCCCCCC(=O)*; Dab = NCC[C@H](N)C(=O)O; Abu = CC[C@H](N)C(=O)O; Dap = NC[C@H](N)C(=O)O; X35 = O=C(Cc1ccccc1F)*; Aib = CC(C)(N)C(=O)O
Measured Minimum inhibitory concentration, Ec FADDI-EC001 accompanies every entry in the list below.
measurement_label: Minimum inhibitory concentration, Ec FADDI-EC001 (mg/L)

# compound, sign, measurement
data = [
    ("CCCCCCCCCC(=O)N[C@@H](CCN)C(=O)N[C@H](C(=O)N[C@@H](CCN)C(=O)N[C@H]1CCNC(=O)[C@H]([C@@H](C)O)NC(=O)[C@H](CCN)NC(=O)[C@H](CCN)NC(=O)[C@H](C)NC(=O)[C@@H](CC(C)C)NC(=O)[C@H](CCN)NC1=O)[C@@H](C)O [Compound 40] (Decanoyl-[Dab]T[Dab][Dab][Dab][dL]A[Dab][Dab]T; lactam 4-C)", "=", 0.25),
    ("CC[C@@H]1NC(=O)[C@@H](CC(C)C)NC(=O)[C@H](CCN)NC(=O)[C@@H](NC(=O)[C@H](CN)NC(=O)[C@@H](NC(=O)[C@H](CCN)NC(=O)Cc2ccccc2F)[C@@H](C)O)CCNC(=O)[C@H]([C@@H](C)O)NC(=O)[C@H](CCN)NC(=O)[C@H](CCN)NC1=O [Compound 85] (X35-[Dab]T[Dap][Dab][Dab][dL][Abu][Dab][Dab]T; lactam 4-C)", "=", 0.5),
    ("CCCCCCCC(=O)N[C@@H](CCN)C(=O)N[C@H](C(=O)N[C@@H](CN)C(=O)N[C@H]1CCNC(=O)[C@H]([C@@H](C)O)NC(=O)[C@H](CCN)NC(=O)[C@H](CCN)NC(=O)C(C)(C)NC(=O)[C@@H](CC(C)C)NC(=O)[C@H](CCN)NC1=O)[C@@H](C)O [Compound 45] (Octanoyl-[Dab]T[Dap][Dab][Dab][dL][Aib][Dab][Dab]T; lactam 4-C)", "=", 0.5),
    ("CCCCCCCC(=O)N[C@@H](CCN)C(=O)N[C@H](C(=O)N[C@H](CO)C(=O)N[C@H]1CCNC(=O)[C@H]([C@@H](C)O)NC(=O)[C@H](CCN)NC(=O)[C@H](CCN)NC(=O)[C@H](C)NC(=O)[C@@H](CC(C)C)NC(=O)[C@H](CCN)NC1=O)[C@@H](C)O [Compound 2] (Octanoyl-[Dab]T[dS][Dab][Dab][dL]A[Dab][Dab]T; lactam 4-C)", "<", 0.125),
    ("CCCCCCCC(=O)N[C@@H](CCN)C(=O)N[C@H](C(=O)N[C@@H](CN)C(=O)N[C@H]1CCNC(=O)[C@H]([C@@H](C)O)NC(=O)[C@H](CCN)NC(=O)[C@H](CCN)NC(=O)[C@H]([C@@H](C)O)NC(=O)[C@@H](CC(C)C)NC(=O)[C@H](CCN)NC1=O)[C@@H](C)O [Compound 33] (Octanoyl-[Dab]T[Dap][Dab][Dab][dL]T[Dab][Dab]T; lactam 4-C)", "<", 0.125),
    ("CCCCCCCCC(=O)N[C@@H](CCN)C(=O)N[C@H](C(=O)N[C@@H](CN)C(=O)N[C@H]1CCNC(=O)[C@H]([C@@H](C)O)NC(=O)[C@H](CCN)NC(=O)[C@H](CCN)NC(=O)[C@H]([C@@H](C)O)NC(=O)[C@@H](CC(C)C)NC(=O)[C@H](CCN)NC1=O)[C@@H](C)O [Compound 58] (Nonanoyl-[Dab]T[Dap][Dab][Dab][dL]T[Dab][Dab]T; lactam 4-C)", "=", 0.25),
]

----------
Positions of bridges follow the written chain, without caps; N, C: chain ends. Non-standard residues stand in square brackets, D forms with d. Residues, ends and D or L forms follow the SMILES beside them. *: point of attachment. Benzoyl(4-Cl) = O=C(c1ccc(Cl)cc1)*; X24 = Cc1ccc(C(=O)*)c(C)c1; Octanoyl = CCCCCCCC(=O)*; Dab = NCC[C@H](N)C(=O)O; Abu = CC[C@H](N)C(=O)O; Dap = NC[C@H](N)C(=O)O
Acinetobacter baumannii: reported Minimum inhibitory concentration, Ab A ATCC 17978 for various molecules.
measurement_label: Minimum inhibitory concentration, Ab A ATCC 17978 (µg/mL)

# molecule, measurement
data = [
    ("CC[C@@H]1NC(=O)[C@@H](CC(C)C)NC(=O)[C@H](CCN)NC(=O)[C@@H](NC(=O)[C@H](CN)NC(=O)[C@@H](NC(=O)[C@H](CCN)NC(=O)c2ccc(C)cc2C)[C@@H](C)O)CCNC(=O)[C@H]([C@@H](C)O)NC(=O)[C@H](CCN)NC(=O)[C@H](CCN)NC1=O [Compound 89] (X24-[Dab]T[Dap][Dab][Dab][dL][Abu][Dab][Dab]T; lactam 4-C)", 1),
    ("CC[C@@H]1NC(=O)[C@@H](CC(C)C)NC(=O)[C@H](CCN)NC(=O)[C@@H](NC(=O)[C@H](CN)NC(=O)[C@@H](NC(=O)[C@H](CCN)NC(=O)c2ccc(Cl)cc2)[C@@H](C)O)CCNC(=O)[C@H]([C@@H](C)O)NC(=O)[C@H](CCN)NC(=O)[C@H](CCN)NC1=O [Compound 94] ({Benzoyl(4-Cl)}-[Dab]T[Dap][Dab][Dab][dL][Abu][Dab][Dab]T; lactam 4-C)", 0.5),
    ("CCCCCCCC(=O)N[C@@H](CCN)C(=O)N[C@H](C(=O)N[C@@H](CN)C(=O)N[C@H]1CCNC(=O)[C@H]([C@@H](C)O)NC(=O)[C@H](CCN)NC(=O)[C@H](CCN)NC(=O)[C@H](C)NC(=O)[C@@H](Cc2ccccc2)NC(=O)[C@H](CCN)NC1=O)[C@@H](C)O [Compound 128] (Octanoyl-[Dab]T[Dap][Dab][Dab][dF]A[Dab][Dab]T; lactam 4-C)", 0.25),
]
